test: Clearance in cancer patient kidney at 80 to 120 mg for 60 mins; type: ADME, organism-based; parameters: dosed compound name LY2090314; settings: human, in vivo
endpoint: CL renal at 1 h (mL/min)

O=C1NC(=O)C(c2cnc3ccccn23)=C1c1cn2c3c(cc(F)cc13)CN(C(=O)N1CCCCC1)CC2    14.2

---

assay: Volume of distribution at steady state in cancer patient at 40 mg for 60 mins treated 1/8 cycle/day; format: ADME, organism-based; parameters: dosed compound name LY2090314; settings: human, in vivo, read-out: Vdss
endpoint: Vd

O=C1NC(=O)C(c2cnc3ccccn23)=C1c1cn2c3c(cc(F)cc13)CN(C(=O)N1CCCCC1)CC2    64.1 L
